Reported GI50 by item:
System: COLO 205
test_protocol: NCI tumour cell line growth inhibition, 48 h
Activity calls are given as the source filed them. Cut-off read from the data, not from the text of the source: active = GI50 up to about 1.1 µM and inactive = higher.

Request: Any idea what its GI50 is? The compound is CCCCc1ccc(Nc2nc(Cl)c3ncn(COCCOC(C)=O)c3n2)cc1
Result: 23.5 µM (inactive)

Request: Any idea what its GI50 is? The compound is CNc1nc(N)nc(Nc2ccc(I)cc2)c1N=O
Result: 36.4 µM (inactive)

---

Reported GI50 by item:
Test system: SK-OV-3
test_protocol: NCI tumour cell line growth inhibition, 48 h
The source made the active and inactive calls. Rule as the data show it: active = GI50 up to about 1.1 µM and inactive = higher.

COc1ccc2oc(=O)c(-c3csc(-c4ccccc4)n3)cc2c1; 17.3 µM (inactive)
Cc1[nH]c(=O)nc(NCCNCCO)c1C(=O)Nc1c2ccccc2nc2ccccc12; > 100 µM (inactive)
O=C1NCCS(=O)(=O)N[C@@H](CC2=CC=CCC2)C(=O)N2CCCC12 (stereo partly specified); > 100 µM (inactive)
N#Cc1nc(C2CCC2)oc1N; > 100 µM (inactive)
C[N+](C)(C)CCOP(=O)(O)OP(=O)([O-])OCC1CCC(n2ccc(N)nc2=O)O1 (stereo unspecified); > 100 µM (inactive)

Request: Any idea what its GI50 is? The compound is CC(C)Nc1n[nH]c(=O)n1C(C)C
Result: > 100 µM (inactive)

Request: Any idea what its GI50 is? The compound is O=c1[nH]nc(Cc2ccccc2)n1CCO
Result: > 100 µM (inactive)

Request: Any idea what its GI50 is? The compound is CC1=CN(c2ccccc2)S2=C1c1sc3c(c1N2c1ccc(Br)cc1)CCCC3 (stereo unspecified)
Result: > 100 µM (inactive)

Request: Any idea what its GI50 is? The compound is COc1ccc(/C(=N/NC(=O)NN)C(c2ccc(OC)cc2)C2(O)CNc3c(Cl)cc(Cl)cc32)cc1 (stereo unspecified)
Result: 81.8 µM (inactive)

Request: Any idea what its GI50 is? The compound is Oc1ccccc1/C=N/c1ccc(Oc2ccc(Cl)cc2)c(Cl)c1
Result: 29.8 µM (inactive)

Request: Any idea what its GI50 is? The compound is CCn1c2ccccc2c(=O)c2c(OC)ccc(OC)c21
Result: 64.9 µM (inactive)

Request: Any idea what its GI50 is? The compound is C/C=C1/CN2CCC34C5=CC(=O)C(c6cc7c(cc6OC)N(C)C6=C(C(=O)OC)CC8(CC)CCCN9CCC67C98)=CC5=NC23CCC1C4C(=O)OC (stereo unspecified)
Result: 16.7 µM (inactive)

Request: Any idea what its GI50 is? The compound is O=C1C=C(Br)C(=O)C(Br)=C1
Result: > 100 µM (inactive)

Request: Any idea what its GI50 is? The compound is Cc1ccc(SCC(CSCCO)OCn2cnc3c2N=C(N)NC32OCCO2)cc1 (stereo unspecified)
Result: > 100 µM (inactive)

Request: Any idea what its GI50 is? The compound is CCCCCCCC(=O)OC(CBr)COC(=O)C(C)(C)C (stereo unspecified)
Result: > 100 µM (inactive)

Request: Any idea what its GI50 is? The compound is CC1(C)OC[C@@]2([C@@H]3CC[C@@H](C3)C2(C)C)N1O
Result: > 100 µM (inactive)

The reported numbers originate from ChEMBL document CHEMBL1201862.
